Experiment: Pharmacokinetics following oral administration in male cynomolgus monkeys
Type: in vivo
Conditions: cynomolgus monkey, plasma, PO, 5 mg/kg
Experimental: The gavage tube was flushed with 5 mL of vehicle after administration of the dose. Plasma samples were collected at the following time points: 15 min, 30 min, 1 hr, 2 hr, 4 hr, 6 hr, 8 hr and 24 hr postdose. The concentrations of Compound 1 were determined in plasma.
recorded endpoint: half-life (h)
One number for each entry, in h.

Query :: May I ask what half-life has been recorded for CNc1cc(Nc2cc(F)cc3c2OCCO3)nc2c(NC(=O)N[C@@H]3C[C@@H]3F)cnn12 [Compound 1 adipate, Form 1] ?
Result :: 2.66
